target-or-system: human TLR8 (Homo sapiens)
Construct: expressed in transfected cells
Sequence (Q9NR97 27-1041): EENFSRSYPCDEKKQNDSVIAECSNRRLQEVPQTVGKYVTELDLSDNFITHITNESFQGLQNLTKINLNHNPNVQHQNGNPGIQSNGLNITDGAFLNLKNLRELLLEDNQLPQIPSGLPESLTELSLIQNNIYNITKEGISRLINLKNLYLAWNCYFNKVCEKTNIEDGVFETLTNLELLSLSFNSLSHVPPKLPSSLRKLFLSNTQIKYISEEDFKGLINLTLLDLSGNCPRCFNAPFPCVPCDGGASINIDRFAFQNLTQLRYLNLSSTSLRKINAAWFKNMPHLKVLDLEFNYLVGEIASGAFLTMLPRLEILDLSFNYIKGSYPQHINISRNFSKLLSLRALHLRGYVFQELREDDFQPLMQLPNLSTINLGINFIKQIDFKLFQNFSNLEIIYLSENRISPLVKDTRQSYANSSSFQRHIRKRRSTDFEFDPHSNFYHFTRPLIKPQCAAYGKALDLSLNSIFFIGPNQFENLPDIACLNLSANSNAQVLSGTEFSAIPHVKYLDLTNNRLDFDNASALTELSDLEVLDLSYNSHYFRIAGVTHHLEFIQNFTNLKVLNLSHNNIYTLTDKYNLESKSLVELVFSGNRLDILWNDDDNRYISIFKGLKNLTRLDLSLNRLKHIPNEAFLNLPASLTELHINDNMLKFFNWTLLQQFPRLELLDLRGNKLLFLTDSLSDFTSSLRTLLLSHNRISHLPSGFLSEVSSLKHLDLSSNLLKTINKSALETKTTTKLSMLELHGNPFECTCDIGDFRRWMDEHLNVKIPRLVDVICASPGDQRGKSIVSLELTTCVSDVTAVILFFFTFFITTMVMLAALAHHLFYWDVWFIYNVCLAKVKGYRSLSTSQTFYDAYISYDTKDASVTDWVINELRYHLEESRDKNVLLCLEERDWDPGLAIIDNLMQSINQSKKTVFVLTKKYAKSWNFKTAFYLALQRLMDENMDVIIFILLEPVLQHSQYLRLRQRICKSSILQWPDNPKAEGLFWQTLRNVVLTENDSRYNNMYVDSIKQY
test-method-notes: HEK-Blue hTLR8 SEAP reporter gene inhibition assay
Type: cell-based
applied-conditions: read-out: HEK-Blue hTLR8 IC50
measurement-label: IC50

Here's what some known entries look like.
# compound, IC50
data = [
    ("COCCN1Cc2nn3c(c2C[C@@H]1C)CN(c1ccc(C#N)n2ncc(F)c12)C[C@H]3C [Example I-125]", "< 100 nM"),
    ("C[C@@H]1CN(c2ccc(C#N)n3ncc(F)c23)Cc2c3c(nn21)CN(Cc1ccn[nH]1)[C@@H](C)C3 [Example I-134]", "< 100 nM"),
    ("C[C@@H]1CN(c2ccc(C#N)n3ncc(F)c23)Cc2c3c(nn21)CN(CC(=O)N1CCC1)[C@@H](C)C3 [Example I-138]", "> 100 nM"),
]

In the following, a different compound is considered.
Query :: Tell us which IC50 value is on record for C[C@@H]1CN(c2ccc(C#N)n3ncc(F)c23)Cc2c3c(nn21)CN(CC(C)(CO)CO)[C@@H](C)C3 [Example I-225]
Result :: > 100 nM

###

# IC50 values compiled below
target-or-system: human TLR7 (Homo sapiens, UniProt Q9NYK1)
Sequence (Q9NYK1 27-1049): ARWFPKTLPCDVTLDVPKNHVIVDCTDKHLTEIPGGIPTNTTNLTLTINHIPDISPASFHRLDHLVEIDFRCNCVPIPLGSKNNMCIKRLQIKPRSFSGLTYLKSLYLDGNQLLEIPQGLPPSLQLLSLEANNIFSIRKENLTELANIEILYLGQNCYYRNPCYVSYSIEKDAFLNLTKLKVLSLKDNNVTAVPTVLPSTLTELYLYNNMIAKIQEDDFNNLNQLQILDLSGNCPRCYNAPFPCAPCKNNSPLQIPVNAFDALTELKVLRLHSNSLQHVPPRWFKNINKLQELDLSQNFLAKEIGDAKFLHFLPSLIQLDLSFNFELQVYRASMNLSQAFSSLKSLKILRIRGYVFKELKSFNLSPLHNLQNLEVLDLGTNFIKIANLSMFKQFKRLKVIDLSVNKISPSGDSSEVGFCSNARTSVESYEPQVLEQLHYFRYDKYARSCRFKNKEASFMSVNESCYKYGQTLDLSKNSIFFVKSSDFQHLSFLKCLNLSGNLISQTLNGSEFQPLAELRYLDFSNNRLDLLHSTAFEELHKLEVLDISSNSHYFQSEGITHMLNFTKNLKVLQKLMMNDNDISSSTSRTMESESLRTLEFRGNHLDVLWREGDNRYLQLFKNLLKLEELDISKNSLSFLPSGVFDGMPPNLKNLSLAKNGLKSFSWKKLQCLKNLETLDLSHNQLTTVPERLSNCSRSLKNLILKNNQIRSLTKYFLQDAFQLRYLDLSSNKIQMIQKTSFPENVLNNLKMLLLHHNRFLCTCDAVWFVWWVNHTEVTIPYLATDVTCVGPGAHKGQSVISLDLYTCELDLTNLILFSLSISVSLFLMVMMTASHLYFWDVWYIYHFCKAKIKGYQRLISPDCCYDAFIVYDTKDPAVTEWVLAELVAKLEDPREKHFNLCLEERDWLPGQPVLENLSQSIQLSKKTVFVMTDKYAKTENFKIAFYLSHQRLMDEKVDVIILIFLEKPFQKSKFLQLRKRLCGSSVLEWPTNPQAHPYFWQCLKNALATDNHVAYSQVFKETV
test-method-notes: HEK-Blue hTLR7 SEAP reporter gene inhibition assay
Format: cell-based
applied-conditions: read-out: HEK-Blue hTLR7 IC50

# compound-structure-string, IC50
rows = [
    ("C[C@@H]1CN(c2ccc(C#N)n3ncc(F)c23)Cc2c3c(nn21)CN(Cc1ccn[nH]1)[C@@H](C)C3", "< 50 nM"),
    ("C[C@@H]1CN(c2ccc(C#N)n3ncc(F)c23)Cc2c3c(nn21)CN(CC(=O)N1CCC1)[C@@H](C)C3", "< 50 nM"),
    ("C[C@@H]1CN(c2ccc(C#N)n3ncc(F)c23)Cc2c3c(nn21)CN(CC(C)(CO)CO)[C@@H](C)C3", "> 50 nM"),
]

In the following, a different molecule is considered.
Query :: Param request: IC50 | system human TLR7 (Homo sapiens, UniProt Q9NYK1) | item "COCCN1Cc2nn3c(c2C[C@@H]1C)CN(c1ccc(C#N)n2ncc(F)c12)C[C@H]3C"
Result :: < 50 nM

###

target-or-system: UniProtKB Q9NYK1
test-method-notes: HEK-Blue hTLR7 SEAP reporter gene inhibition assay
Format: cell-based
applied-conditions: HEK-Blue hTLR7 IC50 (µM)
measurement-label: IC50

# compound, recorded-measurement
records = [
    ("C[C@@H]1CN(c2ccc(C#N)n3ncc(F)c23)Cc2c3c(nn21)CCN(CC(F)F)C3", "> 0.05 µM"),
]

Query :: Tell us which IC50 value is on record for "C[C@@H]1CN(c2ccc(C#N)n3ncc(F)c23)Cc2c3c(nn21)CN(CC(=O)N1CCNCC1)[C@@H](C)C3"
Result :: < 0.05 µM

Query :: Tell us which IC50 value is on record for C[C@@H]1CN(c2ccc(C#N)n3ncc(F)c23)Cc2c3c(nn21)CN(C1CC(O)C1)[C@@H](C)C3 (stereo partly shown)
Result :: < 0.05 µM

Query :: Tell us which IC50 value is on record for "C[C@@H]1CN(c2ccc(C#N)n3ncc(F)c23)Cc2c3c(nn21)CCN(Cc1ccn[nH]1)C3"
Result :: > 0.05 µM

###

target-or-system: human TLR7 (Homo sapiens, UniProt Q9NYK1)
test-method-notes: HEK-Blue hTLR7 SEAP reporter gene inhibition assay
Type: cell-based
applied-conditions: HEK-Blue hTLR7 IC50 (µM)
# IC50 values compiled below

Here's what some known entries look like.
# compound, IC50
data = [
    ("C[C@@H]1CN(c2ccc(C#N)n3ncc(F)c23)Cc2c3c(nn21)CCN(Cc1cn[nH]c1)C3 [Example I-54]", "< 0.05 µM"),
    ("C[C@@H]1CN(c2ccc(C#N)n3ncc(F)c23)Cc2c3c(nn21)CN1C(=O)OC[C@@H]1C3 [Example I-95]", "> 0.05 µM"),
    ("C[C@@H]1CN(c2ccc(C#N)n3ncc(F)c23)Cc2c3c(nn21)CNC(CCOC(C)(C)C)C3 (stereo partly shown) [Example I-61]", "< 0.05 µM"),
]

In the following, a different compound is considered.
Query :: Tell us which IC50 value is on record for C[C@@H]1CN(c2ccc(C#N)n3ncc(F)c23)Cc2c3c(nn21)CN(C1CC2(COC2)C1)[C@@H](C)C3 [Example I-135]
Result :: < 0.05 µM

###

target-or-system: human TLR7 (Homo sapiens)
test-method-notes: HEK-Blue hTLR7 SEAP reporter gene inhibition assay
Type: cell-based
applied-conditions: hTLR7 HEK-Blue cells, TLR7 ligand Gardiquimod 10 µM, 20 hours, SEAP by Quanti-blue; class symbols; read-out: HEK-Blue hTLR7 IC50
measurement-label: IC50

Here's what some known entries look like.
# compound, recorded-measurement
data = [
    ("C[C@@H]1CN(c2ccc(C#N)c3ncccc23)Cc2c3c(nn21)CN(CC(N)=O)[C@@H](C)C3 [Example I-141]", "> 50 nM"),
    ("C[C@@H]1CN(c2ccc(C#N)c3ncccc23)Cc2c3c(nn21)CN[C@@H](C)C3 [Example I-132]", "< 50 nM"),
    ("C[C@@H]1CN(c2ccc(C#N)n3ncc(F)c23)Cc2c3c(nn21)CN[C@H](CC#N)C3 [Example I-86]", "< 50 nM"),
    ("C[C@@H]1CN(c2ccc(C#N)n3ncc(F)c23)Cc2c3c(nn21)CC(C)(N)CC3 (single isomer, unassigned) [Example I-71a]", "< 50 nM"),
]

In the following, a different compound is considered.
Query :: Tell us which IC50 value is on record for C[C@@H]1CN(c2ccc(C#N)n3ncc(F)c23)Cc2c3c(nn21)CN(C[C@](C)(O)CO)[C@@H](C)C3 [Example I-226]
Result :: < 50 nM

###

target-or-system: human TLR8 (Homo sapiens, UniProt Q9NR97)
Construct: expressed in transfected cells
test-method-notes: HEK-Blue hTLR8 SEAP reporter gene inhibition assay
Assay type: cell-based
applied-conditions: HEK-Blue hTLR8 IC50 (µM)
measurement-label: IC50

Query :: Tell us which IC50 value is on record for C[C@@H]1CN(c2ccc(C#N)n3ncc(F)c23)Cc2c3c(nn21)CN(C1CC(O)C1)[C@@H](C)C3 (stereo partly shown) [Example I-111]
Result :: < 0.1 µM

###

target-or-system: UniProtKB Q9NYK1
test-method-notes: HEK-Blue hTLR7 SEAP reporter gene inhibition assay
Type: cell-based
applied-conditions: hTLR7 HEK-Blue cells, TLR7 ligand Gardiquimod 10 µM, 20 hours, SEAP by Quanti-blue; numeric value; read-out: HEK-Blue hTLR7 IC50
measurement-label: IC50 (nM)
The reply should be a number in nM, with the unit left off.

Query :: Param request: IC50 | system UniProtKB Q9NYK1 | item N#Cc1ccc(N2C[C@H](N)C[C@H](C(F)(F)F)C2)c2cccnc12 [Example M5049, reference compound]
Result :: 64
